System: Digitaria ciliaris
Assay: Herbicidal activity against Digitaria ciliaris at 4 kg/ha treated as paddy application at pre-emergence after 3 weeks
Assay type: functional
measuredProperty: Activity (%)
Record the value in %, omitting the unit from your answer.

>>> testvalue("Cc1nc(NCc2ccccc2)nc(C(F)(F)F)n1")
91
>>> testvalue("Cc1nc(N(C=O)Cc2ccc(Cl)cc2)nc(C(F)(F)C(F)(F)F)n1")
76
>>> testvalue("CC(=O)N(Cc1ccccc1)c1nc(C)nc(C(F)(F)F)n1")
0

Input: Consider the molecule shown here: Cc1nc(NCc2ccc(Cl)cc2)nc(C(F)(F)F)n1 What is its recorded Activity?
Output: 100

* * *

Activity values by entry
Test system: Amaranthus blitum subsp. oleraceus
Assay: Herbicidal activity against Amaranthus blitum subsp. Oleraceus at 4 kg/ha treated as soil application at pre-emergence after 3 weeks
Type: functional

Recorded Activity, per entry:
>>> testvalue("Cc1nc(N(C=O)Cc2ccc(Cl)cc2)nc(C(F)(F)C(F)(F)F)n1")
"100%"
>>> testvalue("CCCc1nc(C)nc(N(C=O)Cc2ccc(Cl)cc2)n1")
"76%"
>>> testvalue("Cc1nc(N(C=O)Cc2ccc(Cl)cc2)nc(C(F)(F)F)n1")
"91%"

Below: the item to evaluate.
Input: Consider the molecule shown here: CCCC(=O)N(Cc1ccccc1)c1nc(C)nc(C(F)(F)F)n1 What is its recorded Activity?
Output: 76%

* * *

System: Digitaria ciliaris
Experiment: Herbicidal activity against Digitaria ciliaris at 4 kg/ha treated as paddy application at pre-emergence after 3 weeks
Type: functional
measuredProperty: Activity (%)
Record the value in %, omitting the unit from your answer.

Recorded Activity, per entry:
>>> testvalue("CCCc1nc(C)nc(N(C=O)Cc2ccc(Cl)cc2)n1")
1
>>> testvalue("Cc1nc(N(C=O)Cc2ccccc2)nc(C(F)(F)F)n1")
76
>>> testvalue("Cc1nc(C(F)F)nc(N(C=O)Cc2ccc(Cl)cc2)n1")
76
>>> testvalue("CCC(=O)N(Cc1ccccc1)c1nc(C)nc(C(F)(F)F)n1")
76
>>> testvalue("Cc1nc(N(C=O)Cc2ccc(Cl)cc2)nc(C(F)(F)F)n1")
91

Below: the item to evaluate.
Input: Consider the compound shown here: CCCC(=O)N(Cc1ccccc1)c1nc(C)nc(C(F)(F)F)n1 What is its recorded Activity?
Output: 51

* * *

System: Amaranthus blitum subsp. oleraceus
Assay: Herbicidal activity against Amaranthus blitum subsp. Oleraceus at 4 kg/ha treated as soil application at pre-emergence after 3 weeks
Assay type: functional
measuredProperty: Activity

Recorded Activity, per entry:
>>> testvalue("Cc1nc(N(C=O)Cc2ccccc2)nc(C(F)(F)F)n1")
"76%"
>>> testvalue("Cc1nc(C(F)F)nc(N(C=O)Cc2ccc(Cl)cc2)n1")
"100%"
>>> testvalue("CCC(=O)N(Cc1ccccc1)c1nc(C)nc(C(F)(F)F)n1")
"91%"

Below: the item to evaluate.
Input: Request: Activity, test system Amaranthus blitum subsp. oleraceus, entry CCNc1nc(Cl)nc(NCC)n1 [SIMAZINE]
Output: 91%

meta.source: ChEMBL document CHEMBL3046323
